# assay.target: T1, recombinant truncated mouse furin (mouse, UniProt P23188 108-714, N-glycosylated at two of three potential sites)
# T1 construct: extracellular domain; Purified by ion exchange and gel permeation; also called recombinant furin; recombinant mouse furin
# T1 sequence (P23188 108-714): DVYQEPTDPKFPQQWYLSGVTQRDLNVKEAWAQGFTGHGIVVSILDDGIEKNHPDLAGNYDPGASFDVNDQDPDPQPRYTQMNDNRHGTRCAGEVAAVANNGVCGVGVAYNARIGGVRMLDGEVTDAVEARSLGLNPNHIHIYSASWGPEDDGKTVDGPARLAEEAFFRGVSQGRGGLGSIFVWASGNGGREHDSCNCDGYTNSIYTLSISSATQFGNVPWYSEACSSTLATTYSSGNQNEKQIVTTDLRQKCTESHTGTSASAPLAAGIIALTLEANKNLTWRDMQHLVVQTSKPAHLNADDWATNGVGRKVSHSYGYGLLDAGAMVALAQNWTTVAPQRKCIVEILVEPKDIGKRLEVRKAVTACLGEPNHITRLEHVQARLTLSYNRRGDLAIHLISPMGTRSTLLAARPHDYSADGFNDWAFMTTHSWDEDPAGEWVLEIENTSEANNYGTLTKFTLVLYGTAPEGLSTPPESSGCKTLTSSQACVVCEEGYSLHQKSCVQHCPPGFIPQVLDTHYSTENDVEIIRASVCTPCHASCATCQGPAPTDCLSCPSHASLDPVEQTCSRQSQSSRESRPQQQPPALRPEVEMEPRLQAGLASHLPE
# assay.procedure: enzyme inhibition, pERTKR-MCA hydrolysis (fluorescence), competitive Ki
Measured Ki, listed per entry.
experimental.endpoint: Ki

* Ac-KHKRRR-NH2 (L-hexapeptide) [Ac-KHKRRR-NH2] | 5.2 µM
* Ac-MRKRRR-NH2 (L-hexapeptide) [Ac-MRKRRR-NH2] | 2.3 µM
* Ac-RHKRRR-NH2 (L-hexapeptide) [Ac-RHKRRR-NH2] | 3.4 µM
* Ac-HHKRRR-NH2 (L-hexapeptide) [Ac-HHKRRR-NH2] | 13.2 µM
